Target: human farnesoid X receptor (Homo sapiens)
Construct: CMX-farnesoid X receptor (full length human farnesoid X receptor); expressed in transfected cells; host or cells: CV-1 African Green Monkey Kidney cells
Sequence (Q96RI1 1-472 isoform Q96RI1-2): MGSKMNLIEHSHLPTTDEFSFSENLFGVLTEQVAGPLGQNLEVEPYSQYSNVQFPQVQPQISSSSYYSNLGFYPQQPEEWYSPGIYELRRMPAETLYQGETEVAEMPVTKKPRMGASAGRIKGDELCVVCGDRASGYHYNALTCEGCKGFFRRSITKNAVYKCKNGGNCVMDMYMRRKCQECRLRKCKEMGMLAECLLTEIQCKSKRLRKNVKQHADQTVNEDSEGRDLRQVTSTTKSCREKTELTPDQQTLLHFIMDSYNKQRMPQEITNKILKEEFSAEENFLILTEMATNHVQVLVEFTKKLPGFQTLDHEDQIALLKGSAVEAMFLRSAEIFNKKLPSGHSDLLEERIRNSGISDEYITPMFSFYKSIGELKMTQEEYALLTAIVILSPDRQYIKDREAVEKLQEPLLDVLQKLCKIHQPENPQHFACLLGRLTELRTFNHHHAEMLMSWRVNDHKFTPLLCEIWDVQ
Sequence (P19793 1-462 partner): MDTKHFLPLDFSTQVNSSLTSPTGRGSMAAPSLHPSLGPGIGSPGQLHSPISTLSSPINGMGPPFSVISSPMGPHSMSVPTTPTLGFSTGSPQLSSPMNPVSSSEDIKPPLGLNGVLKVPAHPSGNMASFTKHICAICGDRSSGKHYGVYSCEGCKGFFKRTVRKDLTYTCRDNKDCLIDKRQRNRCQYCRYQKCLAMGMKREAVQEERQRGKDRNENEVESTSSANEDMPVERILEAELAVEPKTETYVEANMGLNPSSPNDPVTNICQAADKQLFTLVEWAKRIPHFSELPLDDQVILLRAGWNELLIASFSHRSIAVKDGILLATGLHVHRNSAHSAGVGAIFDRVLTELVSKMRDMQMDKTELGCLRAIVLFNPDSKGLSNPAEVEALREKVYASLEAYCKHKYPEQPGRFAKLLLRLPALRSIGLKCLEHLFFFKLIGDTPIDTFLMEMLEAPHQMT
Assay: FXR in vitro assays (farnesoid X receptor/ECREx7 co-transfection assay, TR-FRET assay), Table I
Type: cell-based
Conditions: agonist activity, one or more of the in vitro assays; read-out: EC50
pEC50: −log10 of the molar value.
Hi there, I'd appreciate the recorded pEC50 for every entry that follows.

Prompt line: Find the recorded pEC50 belonging to CC1(C)CN(C(=O)c2ccc(F)c(F)c2)C=C(C(=O)CCl)c2[nH]c3ccccc3c21 and report it.
Response line: 6.00 to 7.00

Prompt line: Find the recorded pEC50 belonging to CC(C)OC(=O)C1=CN(C(=O)c2ccc(F)c(F)c2)CC(C)(C)c2c1[nH]c1cc(OC(=O)OC(C)(C)C)ccc21 and report it.
Response line: 7.00 to 8.00

Prompt line: Find the recorded pEC50 belonging to Cc1ccccc1C(=O)N1C=C(C(=O)OC(C)C)c2[nH]c3ccccc3c2C(C)(C)C1 and report it.
Response line: 7.00 to 8.00

Prompt line: Find the recorded pEC50 belonging to CC1(C)CN(C(=O)c2ccc(F)c(F)c2)C=C(C(=O)OC(CF)CF)c2[nH]c3ccccc3c21 and report it.
Response line: 8.00 to 9.00

Prompt line: Find the recorded pEC50 belonging to CC(C)OC(=O)C1=CN(C(=O)c2cccc(O)c2)CC(C)(C)c2c1[nH]c1ccccc21 and report it.
Response line: 7.00 to 8.00

Prompt line: Find the recorded pEC50 belonging to CC(C)OC(=O)C1=CN(C(=O)N2CCN(C(C)C)CC2)CC(C)(C)c2c1[nH]c1ccccc21 and report it.
Response line: 6.00 to 7.00
